// reported Emax per item
TGT: KCNQ2/3 channels (Homo sapiens, UniProt O43525+O43526)
Construct: expressed in transfected cells
ASSAY_REMARKS: Fluorescence assay using a voltage sensitive dye (fluorimetry)
Assay type: cell-based
CONDITION_PARAMETERS: CHO-K1 cells expressing KCNQ2/3 channels; relative to retigabine = 100%; read-out: Fluorimetry % efficacy (retigabine = 100%)
I only need the number, in %, no unit after it.

Task: Request the reported Emax associated with CCSc1nc2cccnc2c(C)c1C(=O)NCc1cccc(F)c1
Result: 9

Next:
Task: Request the reported Emax associated with CCSc1nc2cnccc2c(C)c1C(=O)NCc1ccc(F)cc1
Result: 34

Task: Request the reported Emax associated with CCSc1nc2ccncc2c(C)c1C(=O)NCc1ccc(F)cc1
Result: 34

Task: Request the reported Emax associated with CCSc1nc2cc(C(F)(F)F)ncc2c(C)c1C(=O)NCc1ccc(F)cc1
Result: 97

Task: Request the reported Emax associated with CCSc1nc2cnccc2c(C)c1C(=O)NCc1cccc(F)c1
Result: 62

Task: Request the reported Emax associated with CCSc1nc2cc(C(F)(F)F)cnc2c(C)c1C(=O)NCc1cccc(F)c1
Result: 156

Task: Request the reported Emax associated with CCSc1nc2cccnc2c(C)c1C(=O)NCc1ccc(F)cc1
Result: 6

Task: Request the reported Emax associated with CCSc1nc2ccncc2c(C)c1C(=O)NCc1cccc(F)c1
Result: 32

Task: Request the reported Emax associated with CCSc1nc2ccsc2c(C)c1C(=O)NCc1cccc(F)c1
Result: -39

* * *

TGT: KCNQ2/3 channels (Homo sapiens, UniProt O43525+O43526)
ASSAY_REMARKS: Fluorescence assay using a voltage sensitive dye (fluorimetry)
CONDITION_PARAMETERS: CHO-K1 cells expressing KCNQ2/3 channels
TEST_READOUT: pEC50
Note on units: pEC50 is unitless, being -log10 of a concentration expressed in mol/L.

Below: 6 molecules and their reported pEC50.
Task: Request the reported pEC50 associated with CCSc1nc2cnccc2c(C)c1C(=O)NCc1cccc(F)c1
Result: 5.66

Task: Request the reported pEC50 associated with CCSc1nc2nc(C(F)(F)F)ccc2c(C)c1C(=O)NCc1ccc(F)cc1
Result: 6.39

Task: Request the reported pEC50 associated with CCOc1nc2sc(C(F)(F)F)cc2c(C)c1C(=O)NCc1cccc(F)c1
Result: 7.20

Task: Request the reported pEC50 associated with CCSc1nc2ccsc2c(C)c1C(=O)NCc1cccc(F)c1
Result: 6.19

Task: Request the reported pEC50 associated with CCOc1nc2cc(C(F)(F)F)sc2c(C)c1C(=O)NCc1cccc(F)c1
Result: 7.29

Task: Request the reported pEC50 associated with CCSc1nc2cc(C(F)(F)F)cnc2c(C)c1C(=O)NCc1ccc(F)cc1
Result: 7.00

Next:
Task: Request the reported pEC50 associated with CCSc1nc2cc(C(F)(F)F)ncc2c(C)c1C(=O)NCc1cccc(F)c1
Result: 6.70

Task: Request the reported pEC50 associated with CCSc1nc2nc(C(F)(F)F)ccc2c(C)c1C(=O)NCc1cccc(F)c1
Result: 6.17

Task: Request the reported pEC50 associated with CCSc1nc2cc(C(F)(F)F)cnc2c(C)c1C(=O)NCc1cccc(F)c1
Result: 7.08

Task: Request the reported pEC50 associated with CCSc1nc2cc(C(F)(F)F)ncc2c(C)c1C(=O)NCc1ccc(F)cc1
Result: 6.52

* * *

// reported Emax per item
TGT: KCNQ2/3 channels (Homo sapiens, UniProt O43525+O43526)
Construct: expressed in transfected cells
ASSAY_REMARKS: Fluorescence assay using a voltage sensitive dye (fluorimetry)
Type: cell-based
CONDITION_PARAMETERS: CHO-K1 cells expressing KCNQ2/3 channels; relative to retigabine = 100%; read-out: Fluorimetry % efficacy (retigabine = 100%)
I only need the number, in %, no unit after it.

Task: GET /values?readout=Emax&system=KCNQ2/3 channels (Homo sapiens, UniProt O43525+O43526)&item= CCOc1nc2sc(C(F)(F)F)cc2c(C)c1C(=O)NCc1cccc(F)c1 [Example 18]
Result: 112

Task: GET /values?readout=Emax&system=KCNQ2/3 channels (Homo sapiens, UniProt O43525+O43526)&item= CCSc1nc2ncccc2c(C)c1C(=O)NCc1cccc(F)c1 [Example 17]
Result: 10

Task: GET /values?readout=Emax&system=KCNQ2/3 channels (Homo sapiens, UniProt O43525+O43526)&item= CCSc1nc2nc(C(F)(F)F)ccc2c(C)c1C(=O)NCc1cccc(F)c1 [Example 6]
Result: 152

Task: GET /values?readout=Emax&system=KCNQ2/3 channels (Homo sapiens, UniProt O43525+O43526)&item= CCSc1nc2ncccc2c(C)c1C(=O)NCc1ccc(F)cc1 [Example 16]
Result: 10

Next:
Task: GET /values?readout=Emax&system=KCNQ2/3 channels (Homo sapiens, UniProt O43525+O43526)&item= CCSc1nc2cc(C(F)(F)F)cnc2c(C)c1C(=O)NCc1ccc(F)cc1 [Example 10]
Result: 148

Task: GET /values?readout=Emax&system=KCNQ2/3 channels (Homo sapiens, UniProt O43525+O43526)&item= CCOc1nc2cc(C(F)(F)F)sc2c(C)c1C(=O)NCc1cccc(F)c1 [Example 5]
Result: 121

Task: GET /values?readout=Emax&system=KCNQ2/3 channels (Homo sapiens, UniProt O43525+O43526)&item= CCSc1nc2cc(C(F)(F)F)ncc2c(C)c1C(=O)NCc1cccc(F)c1 [Example 11]
Result: 101

Task: GET /values?readout=Emax&system=KCNQ2/3 channels (Homo sapiens, UniProt O43525+O43526)&item= CCSc1nc2sccc2c(C)c1C(=O)NCc1cccc(F)c1 [Example 4]
Result: 31

Task: GET /values?readout=Emax&system=KCNQ2/3 channels (Homo sapiens, UniProt O43525+O43526)&item= CCSc1nc2nc(C(F)(F)F)ccc2c(C)c1C(=O)NCc1ccc(F)cc1 [Example 7]
Result: 132
